Provenance of the data: PubChem BioAssay AID2060488

// viability, T/C lookup, one value per entry
# System: 966289-007-R4-J1-PDC complex spheroid viability
# experimental-protocol: Anticancer human tumor 966289-007-R4-J1-PDC patient-derived pancreatic adenocarcinoma cell line growth inhibition [GQUAD]
# setup-conditions: second compound 0.1 µM; first compound 10 µM; active compounds read low

molecule: CC(C)(O)C1CCC(Nc2ccc3ncc(-c4cccc(C(F)(F)F)c4)n3n2)CC1 (stereo not given) + Cc1cnc(CNC(=O)c2c(=O)c3ccc(N4CCCN(C)CC4)nc3n3c2sc2ccccc23)cn1
viability, T/C / %: 7.03
--
molecule: C#Cc1c(F)ccc2cc(O)cc(-c3ncc4c(N5CC6CCC(C5)N6)nc(OCC56CCCN5CC(F)C6)nc4c3F)c12 (stereo not given) + CN(C)c1ccc(Nc2c3ccc(NC(=O)CCN4CCCC4)cc3nc3cc(NC(=O)CCN4CCCC4)ccc23)cc1
viability, T/C / %: 96
--
molecule: COc1ccc([C@@H](O)c2cc(-c3ncnc4cc(N5CCOCC5)ccc34)c(F)cc2Cl)nn1 + Cc1cnc(CNC(=O)c2c(=O)c3ccc(N4CCCN(C)CC4)nc3n3c2sc2ccccc23)cn1
viability, T/C / %: 13.2
--
molecule: C=CC(=O)N1CCN(c2nc(=O)n(-c3c(C)ccnc3C(C)C)c3nc(-c4c(O)cccc4F)c(F)cc23)C(C)C1 (stereo not given) + Cc1cnc(CNC(=O)c2c(=O)c3ccc(N4CCCN(C)CC4)nc3n3c2sc2ccccc23)cn1
viability, T/C / %: 25.3
--
molecule: COc1cccc2c1C(=O)c1c(O)c3c(c(O)c1C2=O)CC(O)(C(=O)CO)CC3OC1CC(N)C(O)C(C)O1 (stereo not given) + Cc1[nH]c2ccc(F)cc2c1-c1nc2c3cccnc3c3ncccc3c2[nH]1
viability, T/C / %: 0.26

###

# Test system: 966289-007-R4-J1-PDC complex spheroid viability
# experimental-protocol: Anticancer human tumor 966289-007-R4-J1-PDC cell line growth inhibition [GQUAD]; active = viability on the fitted dose curve at most 10% of control; inactive = the rest;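 further: spheroids exposed to the agents for seven days before readout; percent viability relative to DMSO vehicle control wells taken as 100%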
# setup-conditions: second compound 3.16 µM; first compound 0.316 µM
Classes used: active, inactive

molecule: C#Cc1c(F)ccc2cc(O)cc(-c3ncc4c(N5CC6CCC(C5)N6)nc(OCC56CCCN5CC(F)C6)nc4c3F)c12 (stereo not given) + CN(C)c1ccc(Nc2c3ccc(NC(=O)CCN4CCCC4)cc3nc3cc(NC(=O)CCN4CCCC4)ccc23)cc1
class-name: inactive
--
molecule: CC(C)n1c(=O)n(C)c2cnc3cc(F)c(-c4ccc(OCCCN5CCCCC5)nc4)cc3c21 + Cc1[nH]c2ccc(F)cc2c1-c1nc2c3cccnc3c3ncccc3c2[nH]1
class-name: inactive
--
molecule: C=CC(=O)N1CCN(c2nc(=O)n(-c3c(C)ccnc3C(C)C)c3nc(-c4c(O)cccc4F)c(F)cc23)C(C)C1 (stereo not given) + Cc1[nH]c2ccc(F)cc2c1-c1nc2c3cccnc3c3ncccc3c2[nH]1
class-name: inactive
--
molecule: CCc1c2c(nc3ccc(O)cc13)-c1cc3c(c(=O)n1C2)COC(=O)[C@]3(O)CC + Cc1cnc(CNC(=O)c2c(=O)c3ccc(N4CCCN(C)CC4)nc3n3c2sc2ccccc23)cn1
class-name: active
--
molecule: CC(=O)O[C@H]1C(=O)[C@@]2(C)[C@H]([C@H](OC(=O)c3ccccc3)[C@]3(O)C[C@H](OC(=O)[C@H](O)[C@@H](NC(=O)c4ccccc4)c4ccccc4)C(C)=C1C3(C)C)[C@]1(OC(C)=O)CO[C@@H]1C[C@@H]2O + Cc1cnc(CNC(=O)c2c(=O)c3ccc(N4CCCN(C)CC4)nc3n3c2sc2ccccc23)cn1
class-name: active
--
molecule: Nc1ccn(C2OC(CO)C(O)C2(F)F)c(=O)n1 (stereo not given) + Cc1[nH]c2ccc(F)cc2c1-c1nc2c3cccnc3c3ncccc3c2[nH]1
class-name: active
--
molecule: CC[C@@]1(O)C(=O)OCc2c1cc1n(c2=O)Cc2cc3c(CN(C)C)c(O)ccc3nc2-1 + Cc1[nH]c2ccc(F)cc2c1-c1nc2c3cccnc3c3ncccc3c2[nH]1
class-name: active
--
molecule: C=CCn1c(=O)c2cnc(Nc3ccc(N4CCN(C)CC4)cc3)nc2n1-c1cccc(C(C)(C)O)n1 + CN(C)c1ccc(Nc2c3ccc(NC(=O)CCN4CCCC4)cc3nc3cc(NC(=O)CCN4CCCC4)ccc23)cc1
class-name: inactive
--
molecule: COc1cccc2c1C(=O)c1c(O)c3c(c(O)c1C2=O)CC(O)(C(=O)CO)CC3OC1CC(N)C(O)C(C)O1 (stereo not given) + Cc1cnc(CNC(=O)c2c(=O)c3ccc(N4CCCN(C)CC4)nc3n3c2sc2ccccc23)cn1
class-name: active
--
molecule: O=C(NO)c1cnc(N2CCN(S(=O)(=O)c3ccc4ccccc4c3)CC2)nc1 + Cc1[nH]c2ccc(F)cc2c1-c1nc2c3cccnc3c3ncccc3c2[nH]1
class-name: inactive
